# TARGET_UNDER_TEST: T1, scHLA-B27-mmH (engineered HLA-B*27 ectodomain in-line fusion protein) (human (HLA-B*2705, beta-2 …))
# T1 construct: also called soluble HLA-B*27 fusion protein
# ASSAY_OVERVIEW: SPR (Biacore), mAb captured, 25 C, PBS pH 5.75
pKd: −log10 of the molar value.
Recorded pKd by entry
MEASUREMENT_LABEL: pKd

BINDER: H4H2480N (antibody, V domains shown) VH: QVQLQQWGAGLLKPSETLSLTCAVYGGSFSGYYWSWIRQTPGKGLEWIGEISHSGNNNYNPSLKSRVTMSKDTSKNQFSLKLSSVTAADTAVYYCARIQLWLRGNDYYGMDVWGQGITVTVSS VL: DIQMTQSPSSLSASVGDRVTITCRASQGIRNDLGWYQQKPGKAPKRLIYAASSLQGGVPSRFSGSGSGTEFTLTISSLQPEDFATYYCLQHNSYPWTFGQGTKVEIK
MEASUREMENT_LABEL: pKd
RECORDED_VALUE: 6.89
//
BINDER: H4H2490N2 (antibody, V domains shown) VH: QVQLVQSGADVKWPGASVKVSCRASGYTFTGYYMHWVRQAPGQGLEWMGWINPNNGGTNYAQKFQGRVTMTRDTSITTVYMELSSLISDDTAVYYCARGEDLELRNYYYYGMDVWGQGTSVTVSS VL: DIQMTQSPSSLSASVGDRVTITCRASQSISSYLNWYQQKPGKAPKLLIYAASNLQSGVPSRFSGSGFGTDFTLTISSLQSEDFATYYCQQTYSTRTFGRGTKVEIK
MEASUREMENT_LABEL: pKd
RECORDED_VALUE: 6.63
//
BINDER: H4H2538P (antibody, V domains shown) VH: QVQLVQSGAEVKKPGASVKVSCKASGYTFTDYYMHWVRQAPGQGLEWIGWINPNSGGSNFAQKFQGRVTMTRDTSISTAYMELSRLRSDDTAVYYCARKAGYTSSWFDYWGQGTLVTVSS VL: DIVMTQSPDSLAVSLGERATINCKSSQSVLYSFNNKNYLSWYQQKPGQPPKLLIYWASTRESGVPDRFSGSGSGTDFTLTISSLQAEDAAVYYCQQYYSMITFGQGTRLEIK
MEASUREMENT_LABEL: pKd
RECORDED_VALUE: 9.19
//
BINDER: H4H2718N (antibody, V domains shown) VH: EVQLVESGGGLVQPGRSLRLSCAASGFTFDEYAMHWVRQVPGKGLEWVSGISRNSGTIGYVDSVLGRFTISRDNAKNSLYLQMNSLRPEDTALYYCAKDKGWLLGMDVWGQGTTVTVSS VL: DIQMTQSPSSLSASVGDRVTITCRASQAIRNDLGWYQQKPGKAPKRLIYAASSLQSGVPSRFSGSGSGTEFALTISSLQPEDFATYYCLQYNSYLYTFGQGTKLEIK
MEASUREMENT_LABEL: pKd
RECORDED_VALUE: 7.01
//
BINDER: H4H2477N2 (antibody, V domains shown) VH: QVQLQQWGAGLLKPSETLSLTCAVYGGSFSDYYWSWIRQPPGKGLEWIGEINHRGNTNYNPSLKSRVTISVDTSKNQFSLKLRSVTAADMAVYYCARIQLWLRGYDYYGMDVWGQGTTVTVSS VL: DIQMTQSPSSLSASVGDRVTITCRASQGIRNDLGWYQQKPGKAPKRLIYAASSLQGGVPSRFSGSGSGTEFSLTISSLQPEDFASYYCLQHNTYPWTFGQGTKVEIK
MEASUREMENT_LABEL: pKd
RECORDED_VALUE: 6.80
